- System: B. thailandensis ATCC 700388
- Measurement Protocol: microbe, parasite or virus in culture
- Assay type: cell-based
- Experimental Setup: Burkholderia thailandensis, ATCC700388, read-out: Minimum inhibitory concentration (MIC), B. thailandensis ATCC 700388
Exercise: for every item that follows, state its recorded MIC.

-- ask Value lookup for MIC; key = O=C(O)c1c(F)ccc2c1OB(O)[C@@H](NC(=O)C(NC(=O)N1CCN(C3CCN(Cc4ccc(O)c(F)c4)CC3)C1=O)c1cc(F)c(O)c(O)c1Cl)C2 (single isomer, unassigned)
-- reply < 1 µg/mL

-- ask Repeat for the following compound: O=C(CN1CCN(C(=O)NC(C(=O)N[C@H]2Cc3ccc(F)c(C(=O)O)c3OB2O)c2cc(F)c(O)c(O)c2Cl)C(=O)C1=O)NCc1cccnc1 (stereo partly shown)
-- reply 2 to 4 µg/mL

-- ask Also, O=C(O)c1c(F)ccc2c1OB(O)[C@@H](NC(=O)C(NC(=O)N1CCN(CCNC(=O)[C@@H]3CCCN3)C1=O)c1cc(F)c(O)c(O)c1Cl)C2 (stereo partly shown) please.
-- reply 2 to 4 µg/mL

-- ask Same question, O=C(O)c1c(F)ccc2c1OB(O)[C@@H](NC(=O)[C@H](NC(=O)N1CCN(C3CCN(C(=O)Nc4ccc(F)c(O)c4)CC3)C1=O)c1cc(F)c(O)c(O)c1Cl)C2 (single isomer, unassigned) this time
-- reply < 1 µg/mL

###

- System: P. aeruginosa CDC-0095
- Measurement Protocol: microbe, parasite or virus in culture
- Format: cell-based
- Experimental Setup: Pseudomonas aeruginosa, CDC0095, read-out: Minimum inhibitory concentration, P. aeruginosa CDC-0095
Quantity Kind: MIC

-- ask Reported MIC, molecule O=C(NCCCS(=O)(=O)N1CCN(C(=O)NC(C(=O)N[C@H]2Cc3ccc(F)c(C(=O)O)c3OB2O)c2cc(F)c(O)c(O)c2Cl)C1=O)Nc1cccc(O)c1 (stereo partly shown) : ____
-- reply 8 to 16 mg/L

-- ask Lookup CN(CCN1CCN(C(=O)N[C@@H](C(=O)N[C@H]2Cc3ccc(F)c(C(=O)O)c3OB2O)c2cc(F)c(O)c(O)c2Cl)C(=O)C1=O)Cc1cncc(O)c1
-- reply < 1 mg/L

-- ask Next: O=C(CN1CCN(C(=O)NC(C(=O)N[C@H]2Cc3ccc(F)c(C(=O)O)c3OB2O)c2cc(F)c(O)c(O)c2Cl)C(=O)C1=O)Nc1nccs1 (stereo partly shown)
-- reply 2 to 4 mg/L

-- ask Thanks! And O=C(O)c1c(F)ccc2c1OB(O)[C@@H](NC(=O)[C@H](NC(=O)N1CCN(C3CCN(C(=O)Nc4cc(F)c(O)c(O)c4Cl)CC3)C1=O)c1ccc(P(=O)(O)O)cc1)C2 (single isomer, unassigned) ?
-- reply < 1 mg/L

-- ask Entry O=C(O)c1c(F)ccc2c1OB(O)[C@@H](NC(=O)[C@H](NC(=O)N1CCN(C3CCN(Cc4cccnc4)CC3)C1=O)c1cc(F)c(O)c(O)c1Cl)C2 please
-- reply 2 to 4 mg/L

-- ask Here is the next molecule: O=C(NCCS(=O)(=O)N1CCN(C(=O)NC(C(=O)N[C@H]2Cc3ccc(F)c(C(=O)O)c3OB2O)c2cc(F)c(O)c(O)c2Cl)C1=O)Nc1cccc(O)c1 (stereo partly shown)
-- reply 8 to 16 mg/L

-- ask Try O=C(O)c1c(F)ccc2c1OB(O)[C@@H](NC(=O)[C@H](NC(=O)N1CCN(C3CCN(C(=O)c4cc(F)c(F)c(O)c4F)CC3)C1=O)c1cc(F)c(O)c(O)c1Cl)C2 (single isomer, unassigned) next.
-- reply < 1 mg/L

-- ask Lookup O=C(O)c1c(F)ccc2c1OB(O)[C@@H](NC(=O)[C@H](NC(=O)N1CCN(C3CCN(S(=O)(=O)c4ccc5[nH]nnc5c4)CC3)C1=O)c1cc(F)c(O)c(O)c1F)C2
-- reply 2 to 4 mg/L

-- ask Next molecule up: O=C(O)c1c(F)ccc2c1OB(O)[C@@H](NC(=O)[C@@H](NC(=O)N1CCN(Cc3ccc(O)c(O)c3Cl)C(=O)C1=O)c1cccc(P(=O)(O)O)c1)C2 (single isomer, unassigned)
-- reply 8 to 16 mg/L

-- ask Next molecule: O=C(NCCCN1CCN(C(=O)NC(C(=O)N[C@H]2Cc3ccc(F)c(C(=O)O)c3OB2O)c2cc(F)c(O)c(O)c2Cl)C(=O)C1=O)c1ccc(F)c(O)c1F (stereo partly shown)
-- reply < 1 mg/L

-- ask Same thing, different molecule: O=C(O)c1c(F)ccc2c1OB(O)[C@@H](NC(=O)[C@H](NC(=O)N1CCN(C3CCN(C(=O)c4cc(O)ccc4F)CC3)C1=O)c1cc(F)c(O)c(O)c1Cl)C2 (single isomer, unassigned)
-- reply < 1 mg/L

-- ask Another molecule: O=C(O)c1c(F)ccc2c1OB(O)[C@@H](NC(=O)C(NC(=O)N1CCN(CC3CCN(C(=O)Nc4cccc(O)c4)CC3)C(=O)C1=O)c1cc(F)c(O)c(O)c1Cl)C2 (stereo partly shown)
-- reply < 1 mg/L

-- ask Please give the result for O=C(NCCCN1CCN(C(=O)NC(C(=O)N[C@H]2Cc3ccc(F)c(C(=O)O)c3OB2O)c2cc(F)c(O)c(O)c2Cl)C1=O)Nc1cccnc1 (stereo partly shown) too.
-- reply 2 to 4 mg/L

-- ask For O=C(CN1CCN(C(=O)NC(C(=O)N[C@H]2Cc3ccc(F)c(C(=O)O)c3OB2O)c2cc(F)c(O)c(O)c2Cl)C(=O)C1=O)NCc1cccnc1 (stereo partly shown) then?
-- reply 2 to 4 mg/L

-- ask Nc1ccc(CN2CCC(N3CCN(C(=O)N[C@@H](C(=O)N[C@H]4Cc5ccc(F)c(C(=O)O)c5OB4O)c4cc(F)c(O)c(O)c4Cl)C3=O)CC2)cn1 (single isomer, unassigned) ?
-- reply 2 to 4 mg/L

-- ask Then what about the molecule O=C(NCCCN1CCN(C(=O)N[C@H](C(=O)N[C@H]2Cc3ccc(F)c(C(=O)O)c3OB2O)c2cc(F)c(O)c(O)c2Cl)C1=O)c1cccc(O)c1 ?
-- reply > 128 mg/L
